- Subject of test: MMP-13 (Homo sapiens)
- Assay: MMP-13 inhibition (thiopeptide or fluorescent peptide substrate)
- Type: biochemical
- Experimental parameters: read-out: MMP-13 IC50
pIC50: −log10 of the molar value. Where a name gives a salt, the structure may show the parent alone.
Value kind: pIC50

INSERT INTO measurements (compound, measured_number) VALUES
  ('CC#CCOc1ccc(S(=O)(=O)N2CCN(C(=O)CN)CC2C(=O)NO)cc1 (centres unmarked)', 6.39),
  ('CC#CCOc1ccc(S(=O)(=O)N2CCNCCC2C(=O)NO)cc1 (centres unmarked)', 7.48),
  ('CC#CCOc1ccc(S(=O)(=O)NC(C(=O)NO)c2ccc(OCCc3scnc3C)cc2)cc1 (centres unmarked)', 6.64),
  ('CC#CCOc1ccc(S(=O)(=O)N(C)C(C(=O)NO)c2ccc(OCCCNC(=O)OCc3ccccc3)cc2)cc1 (centres unmarked)', 7.51),
  ('CC#CCOc1ccc(S(=O)(=O)N(CCN2CCOCC2)CC(=O)NO)cc1 [Example 124, Hydrochloride]', 7.27),
  ('CC#CCOc1ccc(S(=O)(=O)N(CC2CC2)C(C(=O)NO)C(C)C)cc1 (centres unmarked)', 6.85),
  ('CC#CCOc1ccc(S(=O)(=O)N2CCN(C(=O)N3CCOCC3)CC2C(=O)NO)cc1 (centres unmarked)', 7.41),
  ('CC#CCOc1ccc(S(=O)(=O)N(C)[C@@H](C(=O)NO)c2ccc(O[C@H]3CCN(C(=O)OC(C)(C)C)C3)cc2)cc1', 6.92),
  ('CC#CCOc1ccc(S(=O)(=O)N(C)C(C(=O)NO)C(C)C)cc1 (centres unmarked)', 8.35),
  ('CC#CCOc1ccc(S(=O)(=O)N(C)C(C(=O)NO)C(C)(C)SCCN2CCCC2C(=O)OC)cc1 (centres unmarked)', 8.60),
  ('CC#CCOc1ccc(S(=O)(=O)N[C@@H](C(=O)NO)c2ccc(OCCN)cc2)cc1', 6.75),
  ('CC#CCOc1ccc(S(=O)(=O)N(C)[C@@H](C(=O)NO)[C@H]2CC[C@H](O)CC2)cc1', 7.82),
  ('CC#CCOc1ccc(S(=O)(=O)NC(CSCCCCCCCCCC/C=C\CC)C(=O)NO)cc1 (centres unmarked)', 6.49),
  ('CC#CCOc1ccc(S(=O)(=O)NC(C(=O)NO)c2ccc(OCCN(C)C(=O)OC(C)(C)C)cc2)cc1 (centres unmarked)', 6.90),
  ('CC#CCOc1ccc(S(=O)(=O)N2CCN(C(=O)OCc3ccccc3)CC2C(=O)NO)cc1 (centres unmarked)', 8.00),
  ('CC#CCOc1ccc(S(=O)(=O)N(C)CC(=O)NO)cn1', 6.37),
  ('CC#CCOc1ccc(S(=O)(=O)N[C@H](CSCCCO)C(=O)NO)cc1', 6.77),
  ('CC#CCOc1ccc(S(=O)(=O)N(C)C(C(=O)NO)c2ccc(OCCCNS(C)(=O)=O)cc2)cc1 (centres unmarked)', 7.62),
  ('CC#CCOc1ccc(S(=O)(=O)N(CC(C)C)C(C(=O)NO)C(C)C)cc1 (centres unmarked)', 6.51),
  ('CC#CCOc1ccc(S(=O)(=O)NC2(C(=O)NO)CCCCC2)cc1', 6.21),
  ('CC#CCOc1ccc(S(=O)(=O)N2CCCN(C(=O)c3ccccc3)CC2C(=O)NO)cc1 (centres unmarked)', 7.19),
  ('CC#CCOc1ccc(S(=O)(=O)NC(C)(C)C(=O)NO)cc1', 6.40),
  ('CC#CCOc1ccc(S(=O)(=O)N(CC#CCN(CC)CC)C(C(=O)NO)C(C)C)cc1 (centres unmarked)', 7.44),
  ('CC#CCOc1ccc(S(=O)(=O)N(CCCCN2CCN(C)CC2)C(C(=O)NO)C(C)C)cc1 (centres unmarked)', 7.30),
  ('CC#CCOc1ccc(S(=O)(=O)N(CCCN2CCN(C)CC2)C(C(=O)NO)C(C)C)cc1 (centres unmarked) [Example 120, Hydrochloride]', 6.79),
  ('CC#CCOc1ccc(S(=O)(=O)NC(C(=O)NO)c2ccc(OCCOCCOC)cc2)cc1 (centres unmarked)', 6.56),
  ('CC#CCOc1ccc(S(=O)(=O)N(C)C(C(=O)NO)C(C)(C)SCc2ccccc2)cc1 (centres unmarked)', 8.70),
  ('CC#CCOc1ccc(S(=O)(=O)N(C)C(C(=O)NO)C(C)(C)SCCn2ccnc2)cc1 (centres unmarked)', 8.23),
  ('CC#CCOc1ccc(S(=O)(=O)NC(C(=O)NO)c2ccc(O)cc2)cc1 (centres unmarked)', 6.99),
  ('CC#CCOc1ccc(S(=O)(=O)N2CCN(C(=O)N(C)c3ccccc3)CC2C(=O)NO)cc1 (centres unmarked)', 7.21),
  ('CC#CCOc1ccc(S(=O)(=O)N2CCN(C(=O)CNC(=O)OC(C)(C)C)CC2C(=O)NO)cc1 (centres unmarked)', 7.07),
  ('CC#CCOc1ccc(S(=O)(=O)N(C)C(C(=O)NO)C(C)(C)SCCN(CC)CC)cc1 (centres unmarked)', 7.85);
